# Target or system: SaTyrA1
# Condition set: competitive model; 500 µM arogenate, 1 mM NADP+, pH 7.5, 37 °C
pKi: −log10 of the molar value.
Readout label: pKi

* N[C@@H](Cc1ccc(O)cc1)C(=O)O | 4.47

---

# Target or system: ZmTyrAnc (Zea mays, UniProt C0PK73)
# Sequence (C0PK73 50-392): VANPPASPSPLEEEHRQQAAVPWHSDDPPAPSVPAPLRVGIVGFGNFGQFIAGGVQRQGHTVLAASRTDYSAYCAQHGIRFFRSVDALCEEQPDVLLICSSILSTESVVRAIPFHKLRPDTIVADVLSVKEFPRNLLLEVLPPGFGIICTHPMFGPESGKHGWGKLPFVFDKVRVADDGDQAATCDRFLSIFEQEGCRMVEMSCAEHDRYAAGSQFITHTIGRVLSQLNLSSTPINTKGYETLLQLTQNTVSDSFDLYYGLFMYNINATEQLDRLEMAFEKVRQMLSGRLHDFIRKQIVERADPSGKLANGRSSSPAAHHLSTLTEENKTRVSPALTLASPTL
# Condition set: read-out: IC50 (µM Tyr); 500 uM arogenate, 1 mM NADP+; inhibitor
Readout label: IC50 (µM)

* N[C@@H](Cc1ccc(O)cc1)C(=O)O | 850
